A collection of compounds and their measured Ave. rRNA ΔCt
Test system: rRNA (host RNA polymerase I product)
Assay: rRNA ΔCt in Huh7 replicon cells (effect on host RNA polymerases); further: test concentration or dose not given here
Settings: Table 24, average of n
Kindly provide the number alone.

# compound, assay-value
measured = [
    ("O=C(Nc1nc(=O)n([C@H]2C=C[C@@H](CO)O2)cc1F)c1ccccc1[N+](=O)[O-]", 1.42),
]

As a next step, examine the compound that follows.
Req: Which Ave. rRNA ΔCt is reported for this compound? NC(=O)c1ncn([C@@H]2O[C@H](CO)[C@@H](O)[C@H]2O)n1 [RIB, ribavirin, reference compound]
Resp: 2.35

* * *

System: HCV replicon
Assay: HCV replicon system in Huh7 cells, replicon RNA by Q-RT-PCR (HCV ΔCt, ΔΔCt); further: test concentration or dose not given here
Assay type: cell-based, hepatitis C virus
Conditions: Table 24; HCV RNA ΔCt minus rRNA ΔCt
attribute-measured: Ave. ΔΔCt
Answer with a bare number; do not write a unit.

Below, each entry is followed by its recorded Ave. ΔΔCt result.
# molecule, assay-value
rows = [
    ("Nc1nc(=O)n([C@@H]2O[C@H](CO)[C@@H](O)[C@H]2O)cc1F", 1.22),
    ("N=c1nc2n(cc1F)[C@@H]1O[C@H](CO)[C@@H](O)[C@@H]1O2", 1.10),
    ("Nc1nc(=O)n(C2OC(CO)C(Br)C2O)cc1F (stereo not drawn)", 0.64),
]

Req: // returns reported Ave. ΔΔCt for input `Nc1cn([C@@H]2O[C@H](CO)[C@@H](O)[C@H]2O)c(=O)nc1N`
Resp: 1.44

Req: What does the record list as Ave. ΔΔCt for `Nc1nc(=O)n([C@@H]2O[C@H](CO)[C@@H](O)[C@@H]2O)cc1F` ?
Resp: 0.05

Req: Look at this molecule and give its reported Ave. ΔΔCt. `N=c1nc(N)ccn1[C@@H]1O[C@H](CO)[C@@H](O)[C@@H]1O`
Resp: 0.35

Req: // Ave. ΔΔCt lookup, key: `Nc1nc(=O)n([C@@H]2O[C@H](CO)[C@H](Br)[C@H]2O)cc1I`
Resp: 1.64

Req: Value lookup for Ave. ΔΔCt; key = `Cc1ccc(S(=O)(=O)O[C@@H]2[C@@H](O)[C@H](n3cc(I)c(N)nc3=O)O[C@@H]2CO)cc1`
Resp: 1.68

Req: Fill in: Ave. ΔΔCt of `OC[C@@H]1C[C@H](F)[C@H](n2cnc3c(Cl)ncnc32)O1` is ___
Resp: 1.21

* * *

System: human malignant T and B cells and various tumor cell lines
Experiment: Toxicity profile against human malignant T and B cells and various tumor cell lines (MTT, IC50)
Type: cell-based
Conditions: Homo sapiens, HepG2, read-out: Toxicity IC50, HEPG2 (human liver carcinoma cell line); MTT assay, 3-5 days
attribute-measured: IC50 (µM)
Give the value, in units of µM, as a plain number.

Req: Item under review: C[C@@H]1C[C@@H]([C@H](O)CC2CC(=O)NC(=O)C2)C(=O)[C@@H](C)C1 [cyclo-heximide] . Reported IC50?
Resp: 3.6

* * *

Measured average ΔΔCt by item
Tested on: HCV replicon
Assay: HCV replicon system in Huh7 cells, replicon RNA by Q-RT-PCR (HCV ΔCt, ΔΔCt); further: test concentration or dose not given here
Format: cell-based, hepatitis C virus
Conditions: Table 25; HCV RNA ΔCt minus rDNA ΔCt

# molecule, average ΔΔCt
measured = [
    ("OC[C@@H]1O[C@H](n2cnc3c(Cl)ncnc32)CS1 [β-L-KA]", 3.69),
    ("Cc1ccc(S(=O)(=O)O[C@@H]2[C@@H](O)[C@H](n3ccc(N)nc3=O)O[C@@H]2CO)cc1 [β-D-AL]", 0.61),
]

Req: Request the reported average ΔΔCt associated with O=c1nc(NO)c(F)cn1[C@@H]1O[C@H](CO)[C@@H](O)[C@H]1O [β-D-BT]
Resp: 3.39
